test system: MS2 coat protein; assay: apparent Kd, MS2 coat protein; higher = weaker binding; RNA-MaP array; FMN 200 µM where present; conditions: ligand present: flavin mononucleotide; designed as: ON switch for flavin mononucleotide
experimental.readout: apparent Kd (nM)
Lab book: enter the figure in nM, no units written.

# lookup: apparent Kd of `AAUUAAUUGUAGAAGGUACUUAAUUAUGAUAUGUAAGGAUAUACGAUAUUAUAACGACAUGUAUGACAUGAGGAUCACCCAUGU`
8.4

Given `UGUUACUAGUAAGGAUAUACUUGCAAUAAGCUUGUAGAAGGUACAGUCUUUUGUAUAACAUGUUUACAUGAGGAUCACCCAUGU` , state its recorded apparent Kd.
9.66

apparent Kd lookup needed for `GUUUCUAUAAGUUAUAAUUAACAGUCAGAAGGUGAUACUACGACAUGAGGAUCACCCAUGUAAUUCAAGGAUAUGAACUUAAUC` , thanks.
539

Item `GUAGUAUAAAGUUCAUAAUAUAGGAUAGAAGGUGAAAAUUUGACAUGAGGAUCACCCAUGUAAUUCAAGGAUAUGUAGUUACUC` has what recorded apparent Kd?
96.5

apparent Kd for `GCAUACAUUCGAGGAUAUCGGUGAACAAAUUAACGAGAAGGCGAUAUAAUUUUUAAACUUAUAGACAUGAGGAUCACCCAUGUA` ?
20.6

Which apparent Kd reading was recorded for the sequence `GGUCUGAUAUGAGGAUAUGCUCAGGAAUACUGAGCAGAAGGCAUGUGAAUACAUGAGGAUCACCCAUGUGAUCAAUACAGACCA` ?
26

Continuing:
So what does the record say about apparent Kd for `GGGUACAUCGGAGGAUAUCAAGUAAAUACAUGAGGAUCACCCAUGUCGAUGGAGACAUCGGAGAUUGAGAAGGCCGAUGUACCG` ?
5.42

State the recorded apparent Kd for this entry: `AUAGAAGACUAGAAGGACCUAGCUGUAUACCGUCGAGGUAUAUAGCUAGGUAGGAUAUGGGACAUGAGGAUCACCCAUGUCUUG`
7.58

I'd like to know its apparent Kd. The sequence in question is `CGCGGUACUUAGGUACCACACAUGAGGAUCACCCAUGUAUCACAGGAUAUGCAUGAUAUAUUCAGGCAGAAGGGUGAUCUUACC`
99.4

----------
test system: MS2 coat protein; experiment: apparent Kd, MS2 coat protein; higher = weaker binding; RNA-MaP array; conditions: ligand present: flavin mononucleotide; designed as: ON switch for flavin mononucleotide
experimental.readout: apparent Kd

Can you share its apparent Kd? I mean this sequence: `GUGCCACAUGAGGAUCACCCAUGUUUGGCAAGCAAAGGAUAUGGAAUGAUGGCUCGCAGCCCAGAAGGUUGUUGUG`
4.76 nM

Please look up its apparent Kd: `GUAGAACCGCAGAAGGCAUUGAUUCGAGAGCGAUGAGGAUAUGCUCGUCGACAUGAGGAUCACCCAUGUUUACGAUUGAGAUAU`
9.74 nM

New cases:
// query apparent Kd value for entry `UGAAACUAGCCUAAGGAUAUAUAAGUGUGAACAUGAGGAUCACCCAUGUAUGGGAACAAGUGCUGAUAGAAGGUAGGAAUCUCCAA`
43.2 nM

----------
system: MS2 coat protein; assay: apparent Kd, MS2 coat protein; higher = weaker binding; RNA-MaP array; FMN 200 µM where present; details: designed as: ON switch for flavin mononucleotide; no ligand
Each entry below carries its reported apparent Kd.
Quick reminder: number only, in nM, skip the unit.

Examples from the recorded data:
// map `GCUCGUCGUGGAAGAGCAAAAGGACAGGAUAUCGCUUAAACAUGAGGAUCACCCAUGUCCGUUAACGAGAAGGGUCGAAUAAAU` to recorded apparent Kd (system: MS2 coat protein)
138

Notebook entry, MS2 coat protein assay: apparent Kd of `AAUAAUUAGUAAGGAUAUACUAGCGAUUAGCUUGUAGAAGGUACAGUCUUAUGUAUAACAAAUUAACAUGAGGAUCACCCAUGU` = ?
10.2

Param readout= apparent Kd; system= MS2 coat protein; entry= `UUAAUUAUACAAGGAUAUCUAUUGUUCUUUCGACUUACAUGAGGAUCACCCAUGUUAAUAUAUAUAGAGAAGGUGUAUUUUCAG` ; returns value.
43.3

Next:
What measured apparent Kd is associated with `UUGGACGUCGUAGGAUAUGUAGGAUAUUCCUACAUGAGGAUCACCCAUGUUGACAUGGCAGAAGGACAGAAGGACGAUGUCCAU` on MS2 coat protein?
938

----------
test system: MS2 coat protein; test: apparent Kd, MS2 coat protein; higher = weaker binding; RNA-MaP array; tryptophan 2.4 mM where present; conditions: designed as: OFF switch for tryptophan; no ligand
experimental.readout: apparent Kd
# include the unit after the value

Which value of apparent Kd has been reported for `CUAUAAGUACCGGUCCUCAGAUCCUCAUGACGAGGACCGGUACGGCCGCCACUCGAAACAUGAGGAUCACCCAUGUAAUAAUAUU` in the records?
20.2 nM

Would you mind telling me what apparent Kd value was observed for `GUUAUUAGAAAACUAAUAACAGUGGGUGAACGAGGACCGGUACGGCCGCCACUCGGACAUGAGGAUCACCCAUGUCCAUGUGAAA` ?
15.4 nM

Find the recorded apparent Kd belonging to `UCGUUGAAGUCGGCCGCCACUGAACUCAUGUUCAACAUGAGGAUCACCCAUGUACCUUAUUUUAACAGGACCGGGACUUUGACGA` and report it.
167 nM

Please give the measured apparent Kd for this sequence: `AGCACUGUGACGGCCGCCACUAUAUUAGGGUGGUCAGGUUCAUAAAUACAUGAGGAUCACCCAUGUAGGACCGGGUCUCAGUGCA`
9.48 nM

New cases:
For the sequence shown here, `UAAUAAGUACCGGUCCUCAGAUCCUCAUGACGAGGACCGGUACGGCCGCCACUCGAAACAUGAGGAUCACCCAUGUAAUAAUAAC` , give the reported apparent Kd.
27.4 nM

Suppose we examine the sequence `CCUAUGCAGUCGGCCGCCACUGAAAACAGCCUCAAAAUAAAUAUAACAUGAGGAUCACCCAUGUACAGGACCGGGACUGUAUAGG` ; what apparent Kd value has been reported?
147 nM

What does the record list as apparent Kd for `CACGAAAGAUCGGCCGCCACUAUUUGAUGUGUUCUUUCACAUGAGGAUCACCCAUGUUCUUAUUUUAGGACCGGGAUUGAGCGUG` ?
94.8 nM

----------
tested on: MS2 coat protein; test: apparent Kd, MS2 coat protein; higher = weaker binding; RNA-MaP array; FMN 200 µM where present; conditions: designed as: OFF switch for flavin mononucleotide; no ligand
experimental.readout: apparent Kd (nM)
Entry rule: numbers only, all in nM.

Known apparent Kd results, listed for orientation:
Recorded apparent Kd of `CCCUCGUAGUAGAAGGGCGGCCGAAAUCUGCACGCAGGAUAUACAUGAGGAUCACCCAUGUACUGAGCUGAAGAGCACUUGGAA` , please.
15.1

Give its apparent Kd value. Item: `GGAUAGGACGGAGGAUAUACGUGCUAGAGAUACUAGCAAAAUUUCCUCACAUGAGGAUCACCCAUGUAGAAGGCUGUCCUAUCG`
12.2

---
Using the record for `GUUGGGUGUCAUGUCGCACAUGAGGAUCACCCAUGUAGGAGGUAGGAUAUCCACGAGAAACAAGCGGAGAAGGGCCAUUAGCGU` , report its apparent Kd.
27.9

----------
system: MS2 coat protein; assay: apparent Kd, MS2 coat protein; higher = weaker binding; RNA-MaP array; FMN 200 µM where present; conditions: ligand present: flavin mononucleotide; designed as: OFF switch for flavin mononucleotide
experimental.readout: apparent Kd (nM)
Dear colleague, please return just the value in nM, with no unit written.

Report apparent Kd for `GCACUGGAUGUAGGAUAUCAGGACGAUAAGUCCUGAGAAGGACAUGAGGAUCACCCAUGUAAACUCUAACCAGUGCAUAAUAUA` please.
20.4

Suppose we examine the sequence `CUGACGUCAGGAUAUCUGAUGUCUAACUUCGGUUAGACAUCAGAGAAGGGACAUGAGGAUCACCCAUGUCAGAG` ; what apparent Kd value has been reported?
23.1

Data request, read-out apparent Kd, for `UCUACAUAAAUUCAUCAAUACAGAAAGGAUAUGAGAUACAUGAGGAUCACCCAUGUGCAUGGGAAUUAGAAGGUUCAAUUAGCU`
58.6

Would you kindly look at the next entry?
GET /values?readout=apparent Kd&item= `CUCCGUGGCGAGAAGGACGGAAUUUAAGGUUCUGUAGGAUAUCGAAACAUGAGGAUCACCCAUGUAUUGAUCGGGUGCAGUGUG`
32.2

----------
system: MS2 coat protein; test: apparent Kd, MS2 coat protein; higher = weaker binding; RNA-MaP array; settings: designed as: OFF switch for flavin mononucleotide; no ligand
experimental.readout: apparent Kd
Could you give the number and then its unit, please?

Request the reported apparent Kd associated with `ACAACGUAACGAGGAUAUAAUCUAAAAGUUCGGUGACGUAGACAUGAGGAUCACCCAUGUUAGUAUUAGAAGGCGUUCGGCGGG`
14.4 nM

Bench note: what apparent Kd did `UGCCCACAGGAGAAGGUGGCUCAACCAGAGCGCCAAGGAUAUCCGGAGUUACUCCUCACUACAUGAGGAUCACCCAUGUUUCAU` show?
71.5 nM

What measured apparent Kd goes with `UGAGUUUACUGAGGAUAUUCGGGUCCGACGACAUGAGGAUCACCCAUGUUAGUAAUGCUGCAAGGGAAGAAGGCAGAAAGAACU` ?
13.7 nM

Give the measured apparent Kd of `CGGAAUUCAGGAUAUGGCAUAUCCUACAUGAGGAUCACCCAUGUAUGACCCGUGUGCCGGCCAGAAGGGAACGCUG` .
10.8 nM
